Every entry's value here was drawn from patent US20240400708A1.

- Assay system: feline FcRn complex (FcRn-α subunit and β-microglobulin), biotin labeled (feline)
- Experimental details: SPR, pH 7.4
Metric: Kd (nM)
Give just the number in nM; leave the unit off.

Example results:
Kindly note the recorded Kd for feline IgG1a S428Y (antibody, part only; not given: Variable domains, not shown: another chain or arm of the molecule) constant: ASTTAPSVFPLAPSCGTTSGATVALACLVLGYFPEPVTVSWNSGALTSGVHTFPAVLQASGLYSLSSMVTVPSSRWLSDTFTCNVAHPPSNTKVDKTVRKTDHPPGPKPCDCPKCPPPEMLGGPSIFIFPPKPKDTLSISRTPEVTCLVVDLGPDDSDVQITWFVDNTQVYTAKTSPREEQFNSTYRVVSVLPILHQDWLKGKEFKCKVNSKSLPSPIERTISKAKGQPHEPQVYVLPPAQEELSRNKVSVTCLIKSFHPPDIAVEWEITGQPEPENNYRTTPPQLDSDGTYFVYSKLSVDRSHWQRGNTYTCSVYHEALHSHHTQKSLTQSPGK , which is 18700

For this binder ( feline IgG1a S252F/S434W (antibody, part only; not given: Variable domains, not shown: another chain or arm of the molecule) constant: ASTTAPSVFPLAPSCGTTSGATVALACLVLGYFPEPVTVSWNSGALTSGVHTFPAVLQASGLYSLSSMVTVPSSRWLSDTFTCNVAHPPSNTKVDKTVRKTDHPPGPKPCDCPKCPPPEMLGGPSIFIFPPKPKDTLFISRTPEVTCLVVDLGPDDSDVQITWFVDNTQVYTAKTSPREEQFNSTYRVVSVLPILHQDWLKGKEFKCKVNSKSLPSPIERTISKAKGQPHEPQVYVLPPAQEELSRNKVSVTCLIKSFHPPDIAVEWEITGQPEPENNYRTTPPQLDSDGTYFVYSKLSVDRSHWQRGNTYTCSVSHEALHWHHTQKSLTQSPGK ), measured Kd is 1370

Form: binder = feline IgG1a D312P/L314K (antibody, part only; not given: Variable domains, not shown: another chain or arm of the molecule) constant: ASTTAPSVFPLAPSCGTTSGATVALACLVLGYFPEPVTVSWNSGALTSGVHTFPAVLQASGLYSLSSMVTVPSSRWLSDTFTCNVAHPPSNTKVDKTVRKTDHPPGPKPCDCPKCPPPEMLGGPSIFIFPPKPKDTLSISRTPEVTCLVVDLGPDDSDVQITWFVDNTQVYTAKTSPREEQFNSTYRVVSVLPILHQPWKKGKEFKCKVNSKSLPSPIERTISKAKGQPHEPQVYVLPPAQEELSRNKVSVTCLIKSFHPPDIAVEWEITGQPEPENNYRTTPPQLDSDGTYFVYSKLSVDRSHWQRGNTYTCSVSHEALHSHHTQKSLTQSPGK ; Kd = 311

Continuing:
Kd reported for this binder feline IgG1a S252H/S428M/S434L (antibody, part only; not given: Variable domains, not shown: another chain or arm of the molecule) constant: ASTTAPSVFPLAPSCGTTSGATVALACLVLGYFPEPVTVSWNSGALTSGVHTFPAVLQASGLYSLSSMVTVPSSRWLSDTFTCNVAHPPSNTKVDKTVRKTDHPPGPKPCDCPKCPPPEMLGGPSIFIFPPKPKDTLHISRTPEVTCLVVDLGPDDSDVQITWFVDNTQVYTAKTSPREEQFNSTYRVVSVLPILHQDWLKGKEFKCKVNSKSLPSPIERTISKAKGQPHEPQVYVLPPAQEELSRNKVSVTCLIKSFHPPDIAVEWEITGQPEPENNYRTTPPQLDSDGTYFVYSKLSVDRSHWQRGNTYTCSVMHEALHLHHTQKSLTQSPGK : 3.55

The value of Kd measured for the binder feline IgG1a S252H/S428M/S434Y (antibody, part only; not given: Variable domains, not shown: another chain or arm of the molecule) constant: ASTTAPSVFPLAPSCGTTSGATVALACLVLGYFPEPVTVSWNSGALTSGVHTFPAVLQASGLYSLSSMVTVPSSRWLSDTFTCNVAHPPSNTKVDKTVRKTDHPPGPKPCDCPKCPPPEMLGGPSIFIFPPKPKDTLHISRTPEVTCLVVDLGPDDSDVQITWFVDNTQVYTAKTSPREEQFNSTYRVVSVLPILHQDWLKGKEFKCKVNSKSLPSPIERTISKAKGQPHEPQVYVLPPAQEELSRNKVSVTCLIKSFHPPDIAVEWEITGQPEPENNYRTTPPQLDSDGTYFVYSKLSVDRSHWQRGNTYTCSVMHEALHYHHTQKSLTQSPGK turned out to be 20.7

Short answer for feline IgG1a S252F/S434H (antibody, part only; not given: Variable domains, not shown: another chain or arm of the molecule) constant: ASTTAPSVFPLAPSCGTTSGATVALACLVLGYFPEPVTVSWNSGALTSGVHTFPAVLQASGLYSLSSMVTVPSSRWLSDTFTCNVAHPPSNTKVDKTVRKTDHPPGPKPCDCPKCPPPEMLGGPSIFIFPPKPKDTLFISRTPEVTCLVVDLGPDDSDVQITWFVDNTQVYTAKTSPREEQFNSTYRVVSVLPILHQDWLKGKEFKCKVNSKSLPSPIERTISKAKGQPHEPQVYVLPPAQEELSRNKVSVTCLIKSFHPPDIAVEWEITGQPEPENNYRTTPPQLDSDGTYFVYSKLSVDRSHWQRGNTYTCSVSHEALHHHHTQKSLTQSPGK : Kd was 18.1

Sure, the documented Kd for feline IgG1a Q311M (antibody, part only; not given: Variable domains, not shown: another chain or arm of the molecule) constant: ASTTAPSVFPLAPSCGTTSGATVALACLVLGYFPEPVTVSWNSGALTSGVHTFPAVLQASGLYSLSSMVTVPSSRWLSDTFTCNVAHPPSNTKVDKTVRKTDHPPGPKPCDCPKCPPPEMLGGPSIFIFPPKPKDTLSISRTPEVTCLVVDLGPDDSDVQITWFVDNTQVYTAKTSPREEQFNSTYRVVSVLPILHMDWLKGKEFKCKVNSKSLPSPIERTISKAKGQPHEPQVYVLPPAQEELSRNKVSVTCLIKSFHPPDIAVEWEITGQPEPENNYRTTPPQLDSDGTYFVYSKLSVDRSHWQRGNTYTCSVSHEALHSHHTQKSLTQSPGK is 5100

Sure, the documented Kd for feline IgG1a D312A (antibody, part only; not given: Variable domains, not shown: another chain or arm of the molecule; small tags and cut ends) constant: ASTTAPSVFPLAPSCGTTSGATVALACLVLGYFPEPVTVSWNSGALTSGVHTFPAVLQASGLYSLSSMVTVPSSRWLSDTFTCNVAHPPSNTKVDKTVRKTDHPPGPKPCDCPKCPPPEMLGGPSIFIFPPKPKDTLSISRTPEVTCLVVDLGPDDSDVQITWFVDNTQVYTAKTSPREEQFNSTYRVVSVLPILHQAWLKGKEFKCKVNSKSLPSPIERTISKAKGQPHEPQVYVLPPAQEELSRNKVSVTCLIKSFHPPDIAVEWEITGQPEPENNYRTTPPQLDSDGTYFVYSKLSVDRSHWQRGNTYTCSVSHEALHSHHTQKSLTQSPGK is 8180
